Just for reference, the supplement of paper PMC10307832 is where these values come from.

- Test system: NCI-H2009
- Assay comment: relative viability (nuclei count vs DMSO), 5 days (fraction); higher = more cells survive
- Details: first compound 0.4 µM
I'd appreciate it if you marked entries 1 (yes) when relative viability is lower than 0.5 and 0 (no) when it is not.

[[record]]
compound = "Cc1sc2c(c1C)C(c1ccc(Cl)cc1)=N[C@@H](CC(=O)OC(C)(C)C)c1nnc(C)n1-2 [JQ1] + O=C(c1cc(Cc2n[nH]c(=O)c3ccccc23)ccc1F)N1CCN(C(=O)C2CC2)CC1 [Olaparib] (partner 8 µM)"
assay_system = "NCI-H2009"
group_label = "0 (no)"

[[record]]
compound = "Cc1sc2c(c1C)C(c1ccc(Cl)cc1)=N[C@@H](CC(=O)OC(C)(C)C)c1nnc(C)n1-2 [JQ1] + C[C@]1(O)C[C@@H](c2nc(-c3ccc4ccc(-c5ccccc5)nc4c3)c3c(N)nccn32)C1 [Linsitinib] (partner 1 µM)"
assay_system = "NCI-H2009"
group_label = "0 (no)"

[[record]]
compound = "Cc1sc2c(c1C)C(c1ccc(Cl)cc1)=N[C@@H](CC(=O)OC(C)(C)C)c1nnc(C)n1-2 [JQ1] + C[C@@H](Oc1cc(-c2cnn(C3CCNCC3)c2)cnc1N)c1c(Cl)ccc(F)c1Cl [Crizotinib] (partner 1 µM)"
assay_system = "NCI-H2009"
group_label = "0 (no)"

[[record]]
compound = "Cc1sc2c(c1C)C(c1ccc(Cl)cc1)=N[C@@H](CC(=O)OC(C)(C)C)c1nnc(C)n1-2 [JQ1] + CC(=O)Nc1cccc(-n2c(=O)n(C3CC3)c(=O)c3c(Nc4ccc(I)cc4F)n(C)c(=O)c(C)c32)c1 [Trametinib] (partner 0.02 µM)"
assay_system = "NCI-H2009"
group_label = "1 (yes)"


Okay, now this compound:
Please indicate whether the reported relative viability of Cc1sc2c(c1C)C(c1ccc(Cl)cc1)=N[C@@H](CC(=O)OC(C)(C)C)c1nnc(C)n1-2 [JQ1] + CC(=O)c1c(C)c2cnc(Nc3ccc(N4CCNCC4)cn3)nc2n(C2CCCC2)c1=O [Palbociclib] (partner 0.5 µM) is strictly below 0.5. 1 (yes)

====

List of relative viability values.
- Test system: NCI-H1792
- Assay comment: relative viability (nuclei count vs DMSO), 5 days (fraction); higher = more cells survive
- Details: first compound 0.8 µM
Give the value as a plain number.

Example entries begin here.
[[record]]
molecule = "Cc1cnc(-c2cnc(NCCNc3ccc(C#N)cn3)nc2-c2ccc(Cl)cc2Cl)[nH]1 + CS(=O)(=O)CCNCc1ccc(-c2ccc3ncnc(Nc4ccc(OCc5cccc(F)c5)c(Cl)c4)c3c2)o1 [Lapatinib] (partner 2 µM)"
assay_system = "NCI-H1792"
recorded_number = 0.862

[[record]]
molecule = "O=c1[nH]c2ccccc2n1C1CCN(CCCC(c2ccc(F)cc2)c2ccc(F)cc2)CC1 [Pimozide] + CC1(C)CCC(c2ccc(Cl)cc2)=C(CN2CCN(c3ccc(C(=O)NS(=O)(=O)c4ccc(N[C@H](CCN5CCOCC5)CSc5ccccc5)c(S(=O)(=O)C(F)(F)F)c4)cc3)CC2)C1 [Navitoclax] (partner 0.5 µM)"
assay_system = "NCI-H1792"
recorded_number = 0.619

[[record]]
molecule = "O=c1[nH]c2ccccc2n1C1CCN(CCCC(c2ccc(F)cc2)c2ccc(F)cc2)CC1 [Pimozide] + Nc1ncn([C@H]2C[C@H](O)[C@@H](CO)O2)c(=O)n1 [Decitabine] (partner 2 µM)"
assay_system = "NCI-H1792"
recorded_number = 0.33


Please find the next molecule below.
Would you kindly share the measured relative viability for O=c1[nH]c2ccccc2n1C1CCN(CCCC(c2ccc(F)cc2)c2ccc(F)cc2)CC1 [Pimozide] + O=C(c1cc(Cc2n[nH]c(=O)c3ccccc23)ccc1F)N1CCN(C(=O)C2CC2)CC1 [Olaparib] (partner 8 µM) ? 0.452
